Overview of reported viability at 1 µM across a group of molecules:
System: iCell cardiomyocytes (human iPSC-derived cardiomyocytes)
Test: High-content imaging of cytotoxicity and mitochondrial integrity in iPSC-CMs
Format: cell-based
Settings: Homo sapiens, Cardiomyocyte, 24 h, 1.00 µM; 0.00 µM = 100.00; read-out: cm.cam.24hrs
Structures can show the parent of a compound that is named as a salt.
Number in %, nothing else.

[[record]]
molecule = "Oc1ccccc1-c1ccc(Cl)cc1"
metric_name = "viability at 1 µM"
quantitative_result = 99.7

[[record]]
molecule = "O=S(=O)(O)Oc1ccc(-c2ccc(Cl)cc2)cc1 [4'-yl PCB 3 sulfate]"
metric_name = "viability at 1 µM"
quantitative_result = 107

[[record]]
molecule = "O=S(=O)(O)Oc1cc(-c2ccccc2)ccc1Cl [3-yl PCB 3 sulfate]"
metric_name = "viability at 1 µM"
quantitative_result = 96.5

[[record]]
molecule = "Oc1ccc(O)c(-c2ccc(Cl)cc2)c1"
metric_name = "viability at 1 µM"
quantitative_result = 97.7


### Prompt For iCell cardiomyocytes (human iPSC-derived cardiomyocytes), provide viability at 1 µM of `Clc1cccc(-c2cccc(Cl)c2)c1` please.
### Response 101

----------
System: iPSC-CMs, iPSC-ECs and HUVECs phenotypes
Assay: ToxPi 2.0 integration of POD values and physicochemical descriptors
Design: species or system human
Settings: ToxPi-scaled (0-1) score; iPSC endothelial cells, tube formation, 18 h
I'd appreciate it if you marked entries yes (1) when endo.tta.18hr is lower than 0.2 and no (0) when it is not.

### Prompt Dear reviewer, please state whether `Oc1ccccc1-c1ccc(Cl)cc1` has endo.tta.18hr strictly beneath 0.2.
### Response yes (1)

### Prompt Can you handle `Oc1ccc(-c2cccc(Cl)c2)cc1Cl` next?
### Response yes (1)

### Prompt Can you handle `Oc1cc(Cl)cc(-c2cccc(Cl)c2)c1` next?
### Response no (0)

### Prompt Can you handle `Oc1cc(Cl)c(-c2cc(Cl)ccc2Cl)cc1Cl` next?
### Response yes (1)

### Prompt Can you handle `COc1cc(Cl)c(-c2cc(Cl)ccc2Cl)cc1Cl` next?
### Response yes (1)

### Prompt Can you handle `Clc1ccc(Cl)c(-c2c(Cl)ccc(Cl)c2Cl)c1` next?
### Response yes (1)

----------
Tested on: iCell endothelial cells (human iPSC-derived ECs)
Assay: High-content imaging cytotoxicity in iCell endothelial cells, 24 h
Type: cell-based
Conditions: Homo sapiens, Endothelial cell, endothelial cells (endo), mitoint, 24 hr, read-out: POD endo.mitoint.24hr
Structures can show the parent of a compound that is named as a salt.
metric name: minimal effective concentration (µM)
Number in µM, nothing else.

Example results:
[[record]]
compound = "Oc1ccc(O)c(-c2ccc(Cl)cc2)c1 [2',5'-diOH-PCB 3, 4-Chloro-2′,5′-dihydroxybiphenyl]"
quantitative_result = 44.6

[[record]]
compound = "Oc1ccccc1-c1ccc(Cl)cc1"
quantitative_result = 100

[[record]]
compound = "COc1cc(Cl)c(-c2cc(Cl)ccc2Cl)cc1Cl"
quantitative_result = 100

[[record]]
compound = "Clc1cccc(-c2cccc(Cl)c2)c1"
quantitative_result = 100

[[record]]
compound = "Oc1ccc(-c2ccc(Cl)cc2)cc1"
quantitative_result = 100


### Prompt Query (compound): `Oc1cccc(-c2ccc(Cl)cc2)c1` ; field requested: minimal effective concentration
### Response 100

### Prompt Can you handle `COc1ccc(-c2ccc(Cl)cc2)cc1` next?
### Response 20.5

### Prompt Can you handle O=S(=O)(O)Oc1ccc(-c2cccc(Cl)c2)cc1Cl [4-PCB 11 sulfate] next?
### Response 100

### Prompt Can you handle `Oc1ccc(-c2cccc(Cl)c2)cc1Cl` next?
### Response 13

### Prompt Can you handle `O=C1C=CC(=O)C(c2ccc(Cl)cc2)=C1` next?
### Response 14.2
